Measured EC50 of individual entries
- System: Primary adult CD34+ human hematopoietic stem cells (HSCs)
- protocol: % CD34+ assay: HSC expansion screen, dose response
- Assay type: cell-based
- recorded.conditions: Homo sapiens, Hematopoietic stem cell; dose response 1 nM to 10 μM; total number and/or percent of CD34+ cells
Reply with just the number (in nM).

// worked examples, EC50 included
compound | target.entity | observed
Cc1ncn(-c2nc(NCCc3ccc(O)cc3)c3ncn(C(C)C)c3n2)c1C | Primary adult CD34+ human hematopoietic stem cells (HSCs) | 140
CC[C@H](C)n1cnc2c(NCCc3c[nH]c4ccccc34)nc(-c3cncc(C)c3)nc21 [Example 131S] | Primary adult CD34+ human hematopoietic stem cells (HSCs) | 3
CC(C)n1cnc2c(NCCc3ccc(O)cc3)nc(-c3cccnc3F)nc21 | Primary adult CD34+ human hematopoietic stem cells (HSCs) | 450

Would you kindly look at the next entry?
Please report the recorded EC50 for CC(C)n1cnc2c(NCCc3ccc(O)cc3)nc(-n3cnc4ncccc43)nc21 .
1900
